Values were extracted from the supplement of paper PMC10724198.

- System: Saccharomyces cerevisiae
- protocol: protein stability index of tFT-peptide fusion (C-terminal peptide) (PSI (0-1 scale)); higher = more stable (slower turnover)
- assay conditions: genetic background: das1 deletion; temperature: 30 C
metric: protein stability index

> print(dat)
                            chain.sequence              assay.target  numeric.result
1     VHTELLIYCHDE [ASR1 C-terminal 12 aa]  Saccharomyces cerevisiae           0.707
2     GCGCNCPEMFDA [MTC5 C-terminal 12 aa]  Saccharomyces cerevisiae           0.691
3     ERVKIGVQFYEE [RTG2 C-terminal 12 aa]  Saccharomyces cerevisiae           0.708
4     YLIKNPGYPIVF [OST6 C-terminal 12 aa]  Saccharomyces cerevisiae           0.621
5  LFFLVGLQLAIP [YGR022C C-terminal 12 aa]  Saccharomyces cerevisiae           0.324

====

Listing: protein stability index of selected sequences
- System: Saccharomyces cerevisiae
- protocol: protein stability index of tFT-peptide fusion (C-terminal peptide) (PSI (0-1 scale)); higher = more stable (slower turnover)
- assay conditions: genetic background: wild type; temperature: 30 C
metric: protein stability index

> print(dat)
   chain.sequence  numeric.result
1    DFGYSLRIIRSE           0.746
2    GRGVAPQGAVDA           0.714
3    ELLTVQLHKAAR           0.706
4    NSPKTKKTNFKE           0.665
5    LLPSAAPPPQFL           0.686
6    PPRGCLYFSRPP           0.739

====

- System: Saccharomyces cerevisiae
- protocol: protein stability index of tFT-peptide fusion (C-terminal peptide) (PSI (0-1 scale)); higher = more stable (slower turnover)
- assay conditions: genetic background: wild type; temperature: 30 C
Class (required): determined from protein stability index; valid ranges are low = under 0.5, intermediate = from 0.5 up to 0.7, high = 0.7 and over

> print(dat)
   chain.sequence  assigned.class
1    DWTNLTVITGDT    intermediate
2    VQAWYWGFFCST            high
3    PFYQSGGLVVVV             low
4    RFLCPSSFIELL            high
5    GWMLVVWCGVFG             low
6    NFVLACYSYNYW    intermediate

====

- Test system: Saccharomyces cerevisiae
- protocol: protein stability index of tFT-peptide fusion (C-terminal peptide) (PSI (0-1 scale)); higher = more stable (slower turnover)
- assay conditions: genetic background: wild type; temperature: 30 C
metric: protein stability index

> print(dat)
                             chain.sequence  numeric.result
1   TNERQLNPWICN [YML090W C-terminal 12 aa]           0.688
2      INIQQFAALLSK [CMD1 C-terminal 12 aa]            0.68
3  PLNDQVCPNSPL [YLR154W-F C-terminal 12 aa]           0.694
4     PGVDVEVVVASN [RPS20 C-terminal 12 aa]           0.702
5      SKNTREEKPTEL [MMM1 C-terminal 12 aa]           0.688
